As shown below, each of these molecules has a reported inhibition at 1.7 µM value.
# target_system: Human glucocorticoid receptors (Homo sapiens, UniProt P04150)
# Construct: made in house; host or cells: Sf9 insect cells, recombinant baculovirus (BAC-TO-BAC)
# test_summary: Radioligand filter binding assay, displacement of 3(H)-dexamethasone from human glucocorticoid receptor cytosol
# test_settings: 1.7 μM test compound; inhibition of 3(H)-dex binding to hGR; read-out: GR BINDING (% Inhibition @ 1.7 μM)
quantity: inhibition at 1.7 µM (%)

> print(dat)
                                   molecule                             target.system              quantity  value.units  number
1  CC#Cc1cccc2c1-c1ccc(NS(C)(=O)=O)cc1C(c1ccccc1)O2 (racemic)  Human glucocorticoid receptors (Homo sapiens, UniProt P04150)  inhibition at 1.7 µM            %    90.6
2  COc1cccc2c1-c1ccc(NS(C)(=O)=O)cc1C(C#N)O2 (stereo not shown)  Human glucocorticoid receptors (Homo sapiens, UniProt P04150)  inhibition at 1.7 µM            %    55.1
3  COc1cccc2c1-c1ccc(NS(C)(=O)=O)cc1C(/C=C/c1ccccc1)O2 (stereo not shown)  Human glucocorticoid receptors (Homo sapiens, UniProt P04150)  inhibition at 1.7 µM            %    86.1
4  C=CCc1cccc2c1-c1ccc(NS(C)(=O)=O)cc1C(c1ccccc1)O2 (racemic)  Human glucocorticoid receptors (Homo sapiens, UniProt P04150)  inhibition at 1.7 µM            %    88.7

====

As shown below, each of these molecules has a reported inhibition at 1.7 µM value.
# target_system: Human glucocorticoid receptors (Homo sapiens, UniProt P04150)
# Construct: made in house; host or cells: Sf9 insect cells, recombinant baculovirus (BAC-TO-BAC)
# Sequence (P04150 1-777): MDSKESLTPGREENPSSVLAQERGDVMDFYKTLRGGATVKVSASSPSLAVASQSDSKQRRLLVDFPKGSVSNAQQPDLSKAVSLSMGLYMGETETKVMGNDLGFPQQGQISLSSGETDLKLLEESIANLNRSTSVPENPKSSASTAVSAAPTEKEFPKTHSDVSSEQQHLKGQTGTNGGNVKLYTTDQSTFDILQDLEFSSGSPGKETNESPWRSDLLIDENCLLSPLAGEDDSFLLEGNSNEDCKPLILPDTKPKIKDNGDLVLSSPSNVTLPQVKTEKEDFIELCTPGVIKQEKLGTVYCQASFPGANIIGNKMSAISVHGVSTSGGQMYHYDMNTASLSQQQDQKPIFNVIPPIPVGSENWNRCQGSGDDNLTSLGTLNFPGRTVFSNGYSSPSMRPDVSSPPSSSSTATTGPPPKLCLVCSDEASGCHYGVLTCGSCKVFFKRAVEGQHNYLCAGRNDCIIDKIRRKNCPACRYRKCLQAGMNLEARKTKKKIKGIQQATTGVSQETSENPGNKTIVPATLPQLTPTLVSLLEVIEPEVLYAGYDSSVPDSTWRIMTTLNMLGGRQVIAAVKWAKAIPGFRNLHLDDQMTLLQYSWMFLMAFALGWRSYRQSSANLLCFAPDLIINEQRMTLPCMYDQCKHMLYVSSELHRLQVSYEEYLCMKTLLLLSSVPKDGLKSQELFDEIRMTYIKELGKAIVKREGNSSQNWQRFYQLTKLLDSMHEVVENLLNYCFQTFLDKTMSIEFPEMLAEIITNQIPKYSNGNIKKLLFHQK
# test_summary: Radioligand filter binding assay, displacement of 3(H)-dexamethasone from human glucocorticoid receptor cytosol
# test_settings: 1.7 μM test compound; inhibition of 3(H)-dex binding to hGR; read-out: GR BINDING (% Inhibition @ 1.7 μM)
quantity: inhibition at 1.7 µM (%)

> print(dat)
                                   molecule  value.units  number
1  COc1cccc2c1-c1ccc(NS(C)(=O)=O)cc1C(c1cccc(N(C)S(=O)(=O)c3ccc(-c4ccon4)s3)c1)O2 (centres unmarked) [Example 149]            %      69
2  COc1cccc2c1-c1ccc(CCN)cc1C(c1ccccc1)O2 (centres unmarked) [Example 19]            %      66
3  CCOC(=O)CCCc1cccc(C2Oc3cccc(OC(F)F)c3-c3ccc(NS(C)(=O)=O)cc32)c1 (centres unmarked) [Example 115]            %    83.5
4  COc1ccc(S(=O)(=O)N(C)c2cccc(C3Oc4cccc(OC)c4-c4ccc(NS(C)(=O)=O)cc43)c2)cc1 (centres unmarked) [Example 148]            %    82.7
5  CS(=O)(=O)Nc1ccc2c(c1)C(c1ccccc1)Oc1cccc(-c3ccco3)c1-2 (racemic) [Example 40]            %    69.3
6  COc1cccc2c1-c1ccc(CC(N)=O)cc1C(c1ccccc1)O2 (centres unmarked) [Example 12]            %    86.1
7  COc1cccc2c1-c1ccc(NS(C)(=O)=O)cc1C(c1cccc(-c3ccc(C(=O)O)cc3)c1)O2 (centres unmarked) [Example 122]            %    63.8
8  CS(=O)(=O)Nc1ccc2c(c1)C(c1ccccc1)Oc1cccc(CO)c1-2 (centres unmarked) [Example 104]            %    86.8

====

# target_system: Human glucocorticoid receptors (Homo sapiens, UniProt P04150)
# Construct: made in house; host or cells: Sf9 insect cells, recombinant baculovirus (BAC-TO-BAC)
# test_summary: Radioligand filter binding assay, displacement of 3(H)-dexamethasone from human glucocorticoid receptor cytosol
# test_settings: 1.7 μM test compound; inhibition of 3(H)-dex binding to hGR; read-out: GR BINDING (% Inhibition @ 1.7 μM)
quantity: inhibition at 1.7 µM (%)

> print(dat)
                                    molecule              quantity  number
 1  COc1cccc2c1-c1ccc(NS(C)(=O)=O)cc1C(c1cccc(Oc3ccccc3)c1)O2 (stereo not drawn)  inhibition at 1.7 µM    90.6
 2  C=CCOc1cccc(C2Oc3cccc(OC)c3-c3ccc(NS(C)(=O)=O)cc32)c1 (stereo not drawn)  inhibition at 1.7 µM    87.5
 3  COc1cccc2c1-c1ccc(NS(C)(=O)=O)c(Br)c1C(c1ccccc1)O2 (stereo not drawn)  inhibition at 1.7 µM    67.2
 4  CCOC(=O)CCCCCC1Oc2cccc(OC)c2-c2ccc(NS(C)(=O)=O)cc21 (stereo not drawn)  inhibition at 1.7 µM    66.1
 5  COCCCCOc1cccc(C2Oc3cccc(OC)c3-c3ccc(NS(C)(=O)=O)cc32)c1 (stereo not drawn)  inhibition at 1.7 µM      90
 6  COc1cccc2c1-c1ccc(NS(C)(=O)=O)cc1C(c1cccc(CCCC(=O)N3CCCCC3)c1)O2 (stereo not drawn)  inhibition at 1.7 µM    78.2
 7  CC(=O)c1cccc2c1-c1ccc(NS(C)(=O)=O)cc1C(c1ccccc1)O2 (stereo not drawn)  inhibition at 1.7 µM    58.9
 8  COc1cc(C)cc2c1-c1ccc(NS(C)(=O)=O)cc1C(c1ccccc1)O2 (stereo not drawn)  inhibition at 1.7 µM    49.3
 9  COc1cccc2c1-c1ccc(NS(C)(=O)=O)cc1C(Cc1cccc(C#N)c1)O2 (stereo not drawn)  inhibition at 1.7 µM    75.1
10  CCOC(=O)C(C)CCCc1cccc(C2Oc3cccc(OC(F)F)c3-c3ccc(NS(C)(=O)=O)cc32)c1 (stereo not drawn)  inhibition at 1.7 µM    83.7
11  CCOC(=O)/C=C/COc1cccc(C2Oc3cccc(OC)c3-c3ccc(NS(C)(=O)=O)cc32)c1 (stereo not drawn)  inhibition at 1.7 µM    79.6
12  C=Cc1cccc2c1-c1ccc(NS(C)(=O)=O)cc1C(c1ccccc1)O2 (racemic)  inhibition at 1.7 µM    94.8
13  COc1cccc2c1-c1ccc(NS(C)(=O)=O)cc1C(c1cccc(CCCC#N)c1)O2 (stereo not drawn)  inhibition at 1.7 µM    91.7
14  CCCC1Oc2cccc(OC(F)F)c2-c2ccc(NS(C)(=O)=O)cc21 (racemic)  inhibition at 1.7 µM    86.8
15  COc1cccc2c1-c1ccc(NS(C)(=O)=O)cc1C(c1cccc(C)c1)O2 (stereo not drawn)  inhibition at 1.7 µM    90.4

====

# target_system: progesterone receptor (PR) (Homo sapiens)
# Sequence (P06401 1-933): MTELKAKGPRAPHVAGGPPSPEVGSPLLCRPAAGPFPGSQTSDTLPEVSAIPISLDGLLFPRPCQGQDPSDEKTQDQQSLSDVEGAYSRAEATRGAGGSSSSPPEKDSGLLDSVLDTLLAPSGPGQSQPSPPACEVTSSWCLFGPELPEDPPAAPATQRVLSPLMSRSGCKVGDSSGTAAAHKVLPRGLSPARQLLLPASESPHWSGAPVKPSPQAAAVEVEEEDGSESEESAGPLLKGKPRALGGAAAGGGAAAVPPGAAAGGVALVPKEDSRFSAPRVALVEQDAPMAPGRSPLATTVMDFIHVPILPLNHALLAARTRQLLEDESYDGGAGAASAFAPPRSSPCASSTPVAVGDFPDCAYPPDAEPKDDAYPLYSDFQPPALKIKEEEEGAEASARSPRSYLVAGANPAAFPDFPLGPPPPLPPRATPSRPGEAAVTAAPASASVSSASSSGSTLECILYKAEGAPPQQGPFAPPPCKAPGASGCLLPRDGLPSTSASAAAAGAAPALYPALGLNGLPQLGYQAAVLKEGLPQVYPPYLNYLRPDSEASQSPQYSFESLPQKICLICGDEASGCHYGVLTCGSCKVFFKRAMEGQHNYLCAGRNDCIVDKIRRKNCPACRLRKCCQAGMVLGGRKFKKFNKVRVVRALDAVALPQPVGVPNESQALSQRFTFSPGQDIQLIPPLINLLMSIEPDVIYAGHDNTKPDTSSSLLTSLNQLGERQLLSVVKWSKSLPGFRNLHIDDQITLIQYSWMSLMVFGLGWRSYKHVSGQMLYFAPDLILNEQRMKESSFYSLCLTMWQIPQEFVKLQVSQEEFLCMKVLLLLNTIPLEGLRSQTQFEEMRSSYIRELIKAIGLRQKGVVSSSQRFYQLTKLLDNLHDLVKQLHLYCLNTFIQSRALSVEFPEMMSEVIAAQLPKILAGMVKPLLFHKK
quantity: IC50

> print(dat)
                                   molecule      result
1  CCOCCCc1cccc(C2Oc3cccc(OC(F)F)c3-c3ccc(NS(C)(=O)=O)cc32)c1 (stereo not shown)      500 nM
2  C=Cc1c(NS(C)(=O)=O)ccc2c1C(c1cccc(C(F)(F)F)c1)Oc1cccc(OC)c1-2 (stereo not shown)  > 10000 nM
3  COc1ccc(-c2cccc(C3Oc4cccc(OC(F)F)c4-c4ccc(NS(C)(=O)=O)cc43)c2)cc1 (stereo not shown)      390 nM
4  CS(=O)(=O)Nc1ccc2c(c1)C(c1cccc(CCCCc3ccccc3)c1)Oc1cccc(OC(F)F)c1-2 (stereo not shown)  > 10000 nM

The reported numbers originate from patent US6593480B2.
